Quick reference for pIC50 among some compounds
Test system: 171881-019-R-J1-PDC tumor spheroids, viability
Assay: Anticancer human tumor 171881-019-R-J1-PDC patient-derived invasive breast carcinoma cell line growth inhibition [GQUAD]
Settings: curve of first compound; second compound 3.16 µM; spheroids with HUVEC and MSC
pIC50: −log10 of the molar value.

# compound, reported-value
rows = [
    ("CC1COCCN1c1cc(C2(S(C)(=N)=O)CC2)nc(-c2ccnc3[nH]ccc23)n1 (stereo not drawn) + CN(C)c1ccc(Nc2c3ccc(NC(=O)CCN4CCCC4)cc3nc3cc(NC(=O)CCN4CCCC4)ccc23)cc1", "> 7.50"),
    ("C#Cc1c(F)ccc2cc(O)cc(-c3ncc4c(N5CC6CCC(C5)N6)nc(OCC56CCCN5CC(F)C6)nc4c3F)c12 (stereo not drawn) + CN(C)c1ccc(Nc2c3ccc(NC(=O)CCN4CCCC4)cc3nc3cc(NC(=O)CCN4CCCC4)ccc23)cc1", "> 7.50"),
]

The record that follows has no pIC50 shown yet.
The recorded pIC50 for entry COc1ncnc(C2CC2)c1-c1ncc2cnn(Cc3ccc(-c4nc(C(F)(F)F)cn4C(C)C)cc3)c2n1 + Cc1cnc(CNC(=O)c2c(=O)c3ccc(N4CCCN(C)CC4)nc3n3c2sc2ccccc23)cn1 equals < 5.00

====

Reported viability, T/C by item:
Test system: 171881-019-R-J1-PDC tumor spheroids, viability
Assay: Anticancer human tumor 171881-019-R-J1-PDC cell line growth inhibition [GQUAD];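 note: spheroids exposed to compounds for 7 days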;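 for viability, T/C: 100% = DMSO vehicle control viability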
Conditions: second compound 0.316 µM; first compound 0.0316 µM; stronger effect = lower value; spheroids with HUVEC and MSC
Report as a plain number; the unit % is understood.

Worked cases, answers included:
# compound, property-name, reported-value
measured = [
    ("COc1cc(C2c3cc4c(cc3C(OC3OC5COC(C)OC5C(O)C3O)C3COC(=O)C23)OCO4)cc(OC)c1O (stereo unspecified) + CN(C)c1ccc(Nc2c3ccc(NC(=O)CCN4CCCC4)cc3nc3cc(NC(=O)CCN4CCCC4)ccc23)cc1", "viability, T/C", 86.4),
    ("CC1COCCN1c1cc(C2(O)CC3CCC(C2)O3)c2cnn(-c3ccn[nH]3)c2n1 (stereo unspecified) + Cc1[nH]c2ccc(F)cc2c1-c1nc2c3cccnc3c3ncccc3c2[nH]1", "viability, T/C", 52.1),
    ("Cc1[nH]c2ccccc2c1CCNCc1ccc(/C=C/C(=O)NO)cc1 + Cc1[nH]c2ccc(F)cc2c1-c1nc2c3cccnc3c3ncccc3c2[nH]1", "viability, T/C", 63.3),
]

Here's the next entry for you.
Recorded viability, T/C (compound CCc1c2c(nc3ccc(O)cc13)-c1cc3c(c(=O)n1C2)COC(=O)[C@]3(O)CC + Cc1[nH]c2ccc(F)cc2c1-c1nc2c3cccnc3c3ncccc3c2[nH]1 ): 33.4

====

Test system: 171881-019-R-J1-PDC tumor spheroids, viability
Assay: Anticancer human tumor 171881-019-R-J1-PDC cell line growth inhibition [GQUAD];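 note: spheroids exposed to compounds for 7 days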;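 for viability, T/C: 100% = DMSO vehicle control viability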
Conditions: second compound 0.1 µM; first compound 0.0316 µM; stronger effect = lower value; spheroids with HUVEC and MSC
So basically, if viability, T/C comes in under 80% it's TRUE, and if it's 80% or more it's FALSE.

Worked set:
# molecule, target-or-system, label-value
measured = [
    ("CC(=O)O[C@H]1C(=O)[C@@]2(C)[C@H]([C@H](OC(=O)c3ccccc3)[C@]3(O)C[C@H](OC(=O)[C@H](O)[C@@H](NC(=O)c4ccccc4)c4ccccc4)C(C)=C1C3(C)C)[C@]1(OC(C)=O)CO[C@@H]1C[C@@H]2O + Cc1[nH]c2ccc(F)cc2c1-c1nc2c3cccnc3c3ncccc3c2[nH]1", "171881-019-R-J1-PDC tumor spheroids, viability", "TRUE"),
    ("CCc1c2c(nc3ccc(O)cc13)-c1cc3c(c(=O)n1C2)COC(=O)[C@]3(O)CC + Cc1cnc(CNC(=O)c2c(=O)c3ccc(N4CCCN(C)CC4)nc3n3c2sc2ccccc23)cn1", "171881-019-R-J1-PDC tumor spheroids, viability", "TRUE"),
    ("COc1cccc2c1C(=O)c1c(O)c3c(c(O)c1C2=O)CC(O)(C(=O)CO)CC3OC1CC(N)C(O)C(C)O1 (stereo unspecified) + Cc1[nH]c2ccc(F)cc2c1-c1nc2c3cccnc3c3ncccc3c2[nH]1", "171881-019-R-J1-PDC tumor spheroids, viability", "FALSE"),
    ("Cc1cccc(N(C)C(=O)C2C(O)CCN2c2nc(C)cc(C(F)(F)F)c2C#N)c1 (stereo unspecified) + CN(C)c1ccc(Nc2c3ccc(NC(=O)CCN4CCCC4)cc3nc3cc(NC(=O)CCN4CCCC4)ccc23)cc1", "171881-019-R-J1-PDC tumor spheroids, viability", "FALSE"),
    ("CC(=O)O[C@H]1C(=O)[C@@]2(C)[C@H]([C@H](OC(=O)c3ccccc3)[C@]3(O)C[C@H](OC(=O)[C@H](O)[C@@H](NC(=O)c4ccccc4)c4ccccc4)C(C)=C1C3(C)C)[C@]1(OC(C)=O)CO[C@@H]1C[C@@H]2O + Cc1cnc(CNC(=O)c2c(=O)c3ccc(N4CCCN(C)CC4)nc3n3c2sc2ccccc23)cn1", "171881-019-R-J1-PDC tumor spheroids, viability", "TRUE"),
    ("Nc1ccn(C2OC(CO)C(O)C2(F)F)c(=O)n1 (stereo unspecified) + Cc1[nH]c2ccc(F)cc2c1-c1nc2c3cccnc3c3ncccc3c2[nH]1", "171881-019-R-J1-PDC tumor spheroids, viability", "TRUE"),
]

Just wondering, is viability, T/C of Nc1ccn(C2OC(CO)C(O)C2(F)F)c(=O)n1 (stereo unspecified) + Cc1cnc(CNC(=O)c2c(=O)c3ccc(N4CCCN(C)CC4)nc3n3c2sc2ccccc23)cn1 below 80%?
TRUE

Strictly below 80%: is that where viability, T/C of Cn1ncnc1[C@H]1c2n[nH]c(=O)c3cc(F)cc(c23)N[C@@H]1c1ccc(F)cc1 + CN(C)c1ccc(Nc2c3ccc(NC(=O)CCN4CCCC4)cc3nc3cc(NC(=O)CCN4CCCC4)ccc23)cc1 sits?
FALSE

Consider CCCS(=O)(=O)Nc1ccc(F)c(C(=O)c2c[nH]c3ncc(-c4ccc(Cl)cc4)cc23)c1F + Cc1cnc(CNC(=O)c2c(=O)c3ccc(N4CCCN(C)CC4)nc3n3c2sc2ccccc23)cn1 . Does its viability, T/C lie strictly below 80%?
FALSE

Confirm or reject: viability, T/C of CC(C)(O)C1CCC(Nc2ccc3ncc(-c4cccc(C(F)(F)F)c4)n3n2)CC1 (stereo unspecified) + Cc1[nH]c2ccc(F)cc2c1-c1nc2c3cccnc3c3ncccc3c2[nH]1 lies strictly below 80%
FALSE

is_below(viability, T/C, 80%) for Cc1[nH]c2ccccc2c1CCNCc1ccc(/C=C/C(=O)NO)cc1 + CN(C)c1ccc(Nc2c3ccc(NC(=O)CCN4CCCC4)cc3nc3cc(NC(=O)CCN4CCCC4)ccc23)cc1 ?
TRUE

Lab note: viability, T/C threshold 80%. Does this molecule come in strictly under it? O=C(c1cc(Cc2n[nH]c(=O)c3ccccc23)ccc1F)N1CCN(C(=O)C2CC2)CC1 + Cc1[nH]c2ccc(F)cc2c1-c1nc2c3cccnc3c3ncccc3c2[nH]1
FALSE

Is viability, T/C of CC(C)n1c(=O)n(C)c2cnc3cc(F)c(-c4ccc(OCCCN5CCCCC5)nc4)cc3c21 + Cc1[nH]c2ccc(F)cc2c1-c1nc2c3cccnc3c3ncccc3c2[nH]1 strictly below 80%?
FALSE

I wonder whether CCc1c2c(nc3ccc(O)cc13)-c1cc3c(c(=O)n1C2)COC(=O)[C@]3(O)CC + Cc1[nH]c2ccc(F)cc2c1-c1nc2c3cccnc3c3ncccc3c2[nH]1 has viability, T/C below 80%. Can you tell?
TRUE

viability, T/C strictly < 80% for this molecule? CCc1c2c(nc3ccc(O)cc13)-c1cc3c(c(=O)n1C2)COC(=O)[C@]3(O)CC + CN(C)c1ccc(Nc2c3ccc(NC(=O)CCN4CCCC4)cc3nc3cc(NC(=O)CCN4CCCC4)ccc23)cc1
TRUE

is_below(viability, T/C, 80%) for COc1cccc2c1C(=O)c1c(O)c3c(c(O)c1C2=O)CC(O)(C(=O)CO)CC3OC1CC(N)C(O)C(C)O1 (stereo unspecified) + Cc1cnc(CNC(=O)c2c(=O)c3ccc(N4CCCN(C)CC4)nc3n3c2sc2ccccc23)cn1 ?
TRUE

Below 80% on viability, T/C? Entry Cc1[nH]c2ccccc2c1CCNCc1ccc(/C=C/C(=O)NO)cc1 + Cc1cnc(CNC(=O)c2c(=O)c3ccc(N4CCCN(C)CC4)nc3n3c2sc2ccccc23)cn1
TRUE

Is the reported viability, T/C for Cc1cccc(N(C)C(=O)C2C(O)CCN2c2nc(C)cc(C(F)(F)F)c2C#N)c1 (stereo unspecified) + Cc1cnc(CNC(=O)c2c(=O)c3ccc(N4CCCN(C)CC4)nc3n3c2sc2ccccc23)cn1 strictly below 80%?
FALSE

Decide: viability, T/C of COc1ncnc(C2CC2)c1-c1ncc2cnn(Cc3ccc(-c4nc(C(F)(F)F)cn4C(C)C)cc3)c2n1 + Cc1[nH]c2ccc(F)cc2c1-c1nc2c3cccnc3c3ncccc3c2[nH]1 strictly below 80%?
FALSE
